TGI by entry:
Tested on: ACHN renal
Assay Procedure: NCI tumour cell line growth inhibition, 48 h

[
  {
    "Molecule": "CCCCOC(=O)c1c(C)[nH]c(/C=C2\\N=C(c3ccc[nH]3)C=C2OC)c1C",
    "Tgt": "ACHN renal",
    "Limit Qualifier": "=",
    "TGI (µM)": 1.3
  },
  {
    "Molecule": "CC/C(=C(/c1ccc(OCCN(C)C)cc1)c1ccc(OC(=O)CCCCCCCCC(=O)c2c(C)[nH]c(/C=C3\\N=C(c4ccc[nH]4)C=C3OC)c2C)cc1)c1ccccc1",
    "Tgt": "ACHN renal",
    "Limit Qualifier": ">",
    "TGI (µM)": 100
  },
  {
    "Molecule": "CSC1=Nc2ccccc2N=C(c2ccccc2)C1",
    "Tgt": "ACHN renal",
    "Limit Qualifier": ">",
    "TGI (µM)": 100
  },
  {
    "Molecule": "COc1cc2c(cc1-c1coc3cc(O)ccc3c1=O)OCO2",
    "Tgt": "ACHN renal",
    "Limit Qualifier": "=",
    "TGI (µM)": 40.9
  },
  {
    "Molecule": "C=CCOCn1cnc2c(=O)[nH]c(N)nc21",
    "Tgt": "ACHN renal",
    "Limit Qualifier": ">",
    "TGI (µM)": 100
  },
  {
    "Molecule": "CC(C)c1c(O[Si](C(C)C)(C(C)C)C(C)C)cc2c(c1O)CC[C@H]1C(C)(C)CCC[C@]21C",
    "Tgt": "ACHN renal",
    "Limit Qualifier": ">",
    "TGI (µM)": 100
  },
  {
    "Molecule": "CN(C)CC(C)(C)CN1c2ccccc2Sc2ccccc21",
    "Tgt": "ACHN renal",
    "Limit Qualifier": "=",
    "TGI (µM)": 28.3
  },
  {
    "Molecule": "COCCCNc1c2ccccc2nc2ccccc12",
    "Tgt": "ACHN renal",
    "Limit Qualifier": "=",
    "TGI (µM)": 2.39
  },
  {
    "Molecule": "COc1cc(OC)c(/C=N\\Nc2nc3ccccc3c(=O)n2-c2ccccc2)c(OC)c1",
    "Tgt": "ACHN renal",
    "Limit Qualifier": "=",
    "TGI (µM)": 38.8
  },
  {
    "Molecule": "NC1NCCC(=O)N1CCc1c[nH]c2ccccc12 (stereo not given)",
    "Tgt": "ACHN renal",
    "Limit Qualifier": "=",
    "TGI (µM)": 55.5
  }
]

---

System: MDA-MB-435
Assay Procedure: NCI tumour cell line growth inhibition, 48 h
TGI by entry:
Recorded Metric: TGI (µM)

[
  {
    "Compound": "CC[C@@]1(O)C(=O)OCc2c1cc1n(c2=O)Cc2c-1nc1cc(F)c(C)c3c1c2[C@@H](NC(=O)CO)CC3",
    "Limit Qualifier": "=",
    "Value": 3.05
  },
  {
    "Compound": "C#CCNC(=O)CC[C@@H](C)[C@H]1CC[C@H]2[C@@H]3CC[C@@H]4CC(=O)CC[C@]4(C)[C@H]3CC[C@]12C",
    "Limit Qualifier": "=",
    "Value": 60.1
  },
  {
    "Compound": "O=C(N/N=C/c1ccncc1)c1ccc(F)cc1",
    "Limit Qualifier": ">",
    "Value": 40
  },
  {
    "Compound": "Fc1ccc(Nc2nc3nonc3nc2Nc2ccc(I)cc2)cc1",
    "Limit Qualifier": "=",
    "Value": 10.8
  },
  {
    "Compound": "CC(C)CC1N=C(OCc2ccccc2)OC1=O (stereo not given)",
    "Limit Qualifier": ">",
    "Value": 100
  },
  {
    "Compound": "O=C1c2ccccc2C(=O)N1NC1=NCCN1",
    "Limit Qualifier": ">",
    "Value": 100
  },
  {
    "Compound": "[O-][N+]1=C2CCC/C(=N/O)C2(O)C2CCCCC21N1CCOCC1 (stereo not given)",
    "Limit Qualifier": ">",
    "Value": 100
  },
  {
    "Compound": "CC#CC#C/C(=C/C=CC(=O)OC)SC",
    "Limit Qualifier": ">",
    "Value": 100
  },
  {
    "Compound": "O[C@@]12Cc3c([nH]c4ccccc34)[C@@H]3Oc4c(-c5ccccc5)ccc5c4[C@@]31CCN(CC1CC1)[C@@H]2C5",
    "Limit Qualifier": "=",
    "Value": 3.27
  },
  {
    "Compound": "CC1(C)C(CC(=O)O)CCCC1CC(=O)O (stereo not given)",
    "Limit Qualifier": ">",
    "Value": 100
  }
]

Sourced from PubChem BioAssay (NCI)
